Reference source for all entries: ChEMBL document CHEMBL1147810

// reported pIC50 for each item listed
- Tested on: BMEC
- Run description: Antiproliferative activity against bovine BMEC
- Type: functional, cell-based
- Experimental setup: Bos taurus
pIC50: −log10 of the molar value.

{"columns": ["Compound string", "Target entity", "pIC50"],
 "data": [
  ["COc1cc(/C=C/c2ccc3cc[nH]c3c2)cc(OC)c1OC", "BMEC", 5.72],
  ["COc1cc(/C=C\\c2cc(O)c3cc(-c4ccccc4)sc3c2)cc(OC)c1OC", "BMEC", 4.64],
  ["COc1cc(/C=C\\c2cc(OP(=O)(O)O)c3ccsc3c2)cc(OC)c1OC", "BMEC", 6.19],
  ["COc1cc(/C=C/c2cc(O)c3cc(-c4ccccc4)sc3c2)cc(OC)c1OC", "BMEC", 4.42]
]}

---

- System: BMEC
- Run description: Antiproliferative activity against bovine BMEC
- Assay type: functional, cell-based
- Experimental setup: Bos taurus
// reported IC50 for each item listed

{"columns": ["Compound string", "Qualifier symbol", "IC50 [nM]"],
 "data": [
  ["COc1cc(/C=C\\c2cc(O)c3cc(-c4ccccc4)oc3c2)cc(OC)c1OC", ">", 2000],
  ["COc1cc(/C=C\\c2cc(O)c3cc(C)oc3c2)cc(OC)c1OC", "=", 93],
  ["COc1cc(/C=C\\c2cc(O)c3c(-c4ccccc4)csc3c2)cc(OC)c1OC", ">", 2000],
  ["COc1cc(/C=C/c2cc(O)c3cc(C)oc3c2)cc(OC)c1OC", "=", 12300],
  ["COc1cc(/C=C\\c2ccc3cc[nH]c3c2)cc(OC)c1OC", "=", 28],
  ["COc1cc(/C=C/c2cc(O)c3c(-c4ccccc4)csc3c2)cc(OC)c1OC", ">", 20000],
  ["COc1cc(/C=C/c2cc(OC)c3ccoc3c2)cc(OC)c1OC", "=", 75000],
  ["COc1cc(/C=C\\c2cc(O)c3cc(C)sc3c2)cc(OC)c1OC", "=", 23],
  ["COc1cc(/C=C/c2cc(O)c3cc(C)sc3c2)cc(OC)c1OC", "=", 840],
  ["COc1cc(/C=C\\c2cc(OC)c3ccoc3c2)cc(OC)c1OC", "=", 7500],
  ["COc1cc(/C=C/c2cc(O)c3cc(-c4ccccc4)oc3c2)cc(OC)c1OC", ">", 20000]
]}
